system_name: human PAD4 (Homo sapiens)
Construct: human PAD4 (NM_012387), A2-P663, was PCR amplified; His-SUMO (N, cleaved yes)
Sequence (Q9UM07 2-663): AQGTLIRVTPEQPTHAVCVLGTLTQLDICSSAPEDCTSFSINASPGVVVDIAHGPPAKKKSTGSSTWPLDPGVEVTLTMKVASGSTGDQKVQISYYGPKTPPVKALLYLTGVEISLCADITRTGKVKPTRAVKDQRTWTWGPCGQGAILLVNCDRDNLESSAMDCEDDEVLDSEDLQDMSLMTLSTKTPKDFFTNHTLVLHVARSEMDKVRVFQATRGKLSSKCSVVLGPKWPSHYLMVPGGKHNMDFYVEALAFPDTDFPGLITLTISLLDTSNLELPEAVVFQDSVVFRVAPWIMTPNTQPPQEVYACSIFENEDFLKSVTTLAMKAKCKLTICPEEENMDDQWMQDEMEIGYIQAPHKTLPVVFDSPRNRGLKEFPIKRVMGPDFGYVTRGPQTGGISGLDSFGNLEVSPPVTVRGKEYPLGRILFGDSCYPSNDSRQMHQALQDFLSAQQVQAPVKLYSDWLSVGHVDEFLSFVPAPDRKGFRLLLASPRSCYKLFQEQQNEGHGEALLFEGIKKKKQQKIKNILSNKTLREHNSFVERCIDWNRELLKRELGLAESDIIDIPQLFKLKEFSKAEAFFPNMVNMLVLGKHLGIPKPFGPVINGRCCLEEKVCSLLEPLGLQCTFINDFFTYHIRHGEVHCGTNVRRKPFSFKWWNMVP
assay_remarks: In vitro PAD4 BAEE biochemical assay
experimental_setup: BAEE substrate 3 mM, 5 nM PAD4, 2 mM calcium chloride; geometric mean of multiple experiments
measurement_kind: IC50 (nM)

The examples below pair each entry with its known result.
| molecule | measurement_kind | unit_tag | result |
| --- | --- | --- | --- |
| CCOCCn1c(-c2cc3ccc4nc3n2CCCCCCC(C)(C)C(=O)N[C@@H]4C)nc2cc(C(=O)N[C@H]3CNCC[C@@H]3F)c(F)cc21 [Example 425] | IC50 | nM | 104 |
| COc1cc(C(=O)N2CC[C@@H](OC)[C@@H](N)C2)cc2nc(-c3cc4ccc5nc4n3CC(F)(F)CCCOC(C)(C)C(=O)N[C@@H]5C)n(C)c12 [Example 588] | IC50 | nM | 193 |

(P) COc1cc(C(=O)N[C@H]2CNCC[C@@H]2F)cc2nc(-c3cc4ccc5nc4n3CC/C=C\C[C@H]3C[C@H]3C(=O)N[C@@H]5C)n(C)c12 [Example 516]
(Q) COc1cc(C(=O)N2CC[C@@H](OC)[C@@H](N)C2)cc2nc(-c3cc4ccc5nc4n3CC(F)(F)CCCCC3(CC3)C(=O)N[C@@H]5C)n(C)c12 [Example 823]
(R) COc1cc(C(=O)N2CC[C@@H](OC)[C@@H](N)C2)cc2nc(-c3cc4ccc5nc4n3CCCCCc3cnccc3C(=O)N[C@@H]5C)n(C)c12 [Example 358]
(S) C[C@H]1NC(=O)c2ccc(Cl)nc2CCCCCn2c(-c3nc4cc(C(=O)N[C@H]5CNCC[C@@H]5F)c(F)cc4n3C3CC3)cc3ccc1nc32 [Example 751]
(T) COc1cc(C(=O)N2C[C@@H]3NCCO[C@@H]3C[C@@H]2C)cc2nc(-c3cc4ccc5nc4n3CC(F)(F)CCC[C@@H]3C[C@H]3C(=O)N[C@@H]5C)n(C)c12 [Example 801]
[in] Order the records so the highest IC50 appears first and the lowest last. Please list each label once, in the requested order.
[out] T, Q, R, P, S
(T: 334 nM, Q: 146 nM, R: 83 nM, P: 48 nM, S: 32 nM)

(I) COCCn1c(-c2cc3ccc4nc3n2CCCCC[C@@H]2C[C@H]2C(=O)N[C@@H]4C)nc2cc(C(=O)N3CC[C@@H](OC)[C@@H](N)C3)cc(F)c21 [Example 436]
(II) COc1cc(C(=O)N2[C@H]3CC[C@@H]2[C@H](N)C3)cc2nc(-c3cc4ccc5nc4n3CCCCCN(C)C(=O)N[C@@H]5C)c(C)n12 [Example 210]
(III) COc1cc(C(=O)N2CC[C@@H](OC)[C@@H](N)C2)cc2nc(-c3cc4ccc5nc4n3C[C@H]3C[C@H]3COCCC(=O)N[C@@H]5C)n(C)c12 [Example 314]
(IV) COc1cc(C(=O)N[C@H]2CNC[C@H](F)C2)cc2nc(-c3cc4ccc5nc4n3CCCCCCC(C)(C)C(=O)N[C@@H]5C)n(C)c12 [Example 64]
(V) COc1cc(C(=O)N2CCC[C@@H](N)[C@H]2C)cc2nc(-c3cc4ccc5nc4n3CCCCC[C@]3(F)C[C@H]3C(=O)N[C@@H]5C)n(C)c12 [Example 706]
[in] # desc sort on IC50 across 5 molecules Output spec: a listing of the labels in the requested order.
[out] IV, III, I, II, V
(IV: 315 nM, III: 156 nM, I: 93 nM, II: 39 nM, V: 19 nM)
